- assay.comment: MTT assay (cytotoxicity), 22Rv1 cells
- Format: cell-based
- measurement.conditions: human, 22Rv1 cells, 72 h treatment, Table 6.1
hey, just use satisfied if measured IC50 at 72 h is less than 4 µM, otherwise not satisfied

# count of solved cases: 5
{"structure.as.smiles": "O=C(Nc1cccc(C(F)(F)F)c1)Nc1ccc(NC(=O)c2cc(F)ccc2F)c(C(F)(F)F)c1", "discrete.label": "not satisfied"}
{"structure.as.smiles": "O=C(Nc1cccc(C(F)(F)F)c1)Nc1cc(NC(=O)c2ccccc2F)cc(C(F)(F)F)c1", "discrete.label": "satisfied"}
{"structure.as.smiles": "O=C(Nc1cccc(C(F)(F)F)c1)Nc1ccc(F)cc1NC(=O)c1ccc(F)cc1F", "discrete.label": "not satisfied"}
{"structure.as.smiles": "O=C(Nc1cccc(C(F)(F)F)c1)Nc1ccc(NC(=O)c2ccc(F)cc2F)c(C(F)(F)F)c1", "discrete.label": "not satisfied"}
{"structure.as.smiles": "O=C(Nc1cccc(C(F)(F)F)c1)Nc1cc(NC(=O)Nc2cccc(C(F)(F)F)c2)cc(C(F)(F)F)c1", "discrete.label": "satisfied"}

Incoming: Dear colleague, could you confirm whether IC50 at 72 h of O=C(Nc1ccc(F)c(NC(=O)c2cc(C(F)(F)F)ccc2F)c1)Nc1ccccc1C(F)(F)F falls below 4 µM? Thanks.
Outgoing: not satisfied

Incoming: Identify whether the molecule O=C(Nc1cccc(C(F)F)c1)Nc1ccc(NC(=O)c2ccccc2F)c(C(F)(F)F)c1 records IC50 at 72 h below 4 µM.
Outgoing: not satisfied

Incoming: Consider the molecule O=C(Nc1cccc(C(F)(F)F)c1)Nc1ccccc1NC(=O)Nc1cccc(C(F)(F)F)c1 . Is its IC50 at 72 h strictly less than 4 µM?
Outgoing: satisfied
